test: Lyophilisation solubility assay (Lysa); assay type: physicochemical; conditions: phosphate buffer, pH 6.5, aqueous buffer, thermodynamic from solid
Record form. Attribute: solubility thermodynamic. Fill in for each entry.

Parameters: items (list). Returns: solubility thermodynamic for each item.
1. CCOC(=O)C1=C(CN2CC(F)(F)C[C@H]2C(=O)O)NC(c2nccs2)=N[C@H]1c1ccc(F)cc1F
2. COC(=O)C1=C(CN2CCOC[C@H]2C(=O)O)NC(c2nccs2)=N[C@H]1c1ccc(Cl)cc1F
3. COC(=O)C1=C(CN2CCSC(C)(C)[C@H]2C(=O)O)NC(c2nccs2)=N[C@H]1c1ccc(F)cc1Cl

Completion:
> 630 µg/mL
> 632 µg/mL
> 610 µg/mL

###

experiment: Cytotoxicity (CC50) in HepDE19 cells, CCK-8 cell viability; assay type: cell-based; conditions: human, HepDE19 cells; read-out: CC50
hey, just use 1 if measured CC50 at 5 days is less than 50 µM, otherwise -1

{"columns": ["compound", "assigned class"],
 "data": [
  ["CCOC(=O)C1=C(CN2CC(F)(F)C[C@H]2C(=O)O)NC(c2nccn2C)=N[C@H]1c1ccc(F)cc1Cl [Example 36]", 1],
  ["COC(=O)C1=C(CN2CCO[C@H](C)[C@H]2C(=O)O)NC(c2nccs2)=N[C@H]1c1cccc(F)c1Cl [Example 115]", -1],
  ["CCOC(=O)C1=C(CN2CCOC[C@H]2C(=O)O)NC(c2nccs2)=N[C@H]1c1ccc(F)cc1Br [Example 122]", -1]
]}

Prompt: Identify whether the compound COC(=O)C1=C(CN2CC(F)(F)C[C@H]2C(=O)O)NC(c2nc(C3CC3)cs2)=N[C@H]1c1ccc(F)cc1Cl [Example 10] records CC50 at 5 days below 50 µM.
Completion: 1

Prompt: Identify whether the compound CCOC(=O)C1=C(CN2CCOC[C@H]2C(=O)O)NC(c2nccs2)=N[C@H]1c1cc(F)c(F)c(F)c1 [Example 43] records CC50 at 5 days below 50 µM.
Completion: -1

Prompt: Identify whether the compound CCOC(=O)C1=C(CN2CCO[C@H](C)[C@H]2C(=O)O)NC(c2nccs2)=N[C@H]1c1ccc(F)c(F)c1 [Example 112] records CC50 at 5 days below 50 µM.
Completion: -1

Prompt: Identify whether the compound CCOC(=O)C1=C(CN2CC(F)(F)C[C@H]2C(=O)O)NC(c2nccs2)=N[C@H]1c1ccc(Br)cc1 [Example 130] records CC50 at 5 days below 50 µM.
Completion: 1

Prompt: Identify whether the compound CCOC(=O)C1=C(CN2CC(F)(F)C[C@H]2C(=O)O)NC(c2nccs2)=N[C@H]1c1ccc(Cl)cc1Cl [Example 38] records CC50 at 5 days below 50 µM.
Completion: 1

Prompt: Identify whether the compound CCOC(=O)C1=C(CN2CCO[C@H](C)[C@H]2C(=O)O)NC(c2nccs2)=N[C@H]1c1cccc(F)c1Cl [Example 118] records CC50 at 5 days below 50 µM.
Completion: -1

Prompt: Identify whether the compound COC(=O)C1=C(CN2CC(F)(F)CC[C@H]2C(=O)O)NC(c2nccs2)=N[C@H]1c1cccc(F)c1Cl [Example 109] records CC50 at 5 days below 50 µM.
Completion: -1

Prompt: Identify whether the compound CCOC(=O)C1=C(CN2CC(F)(F)CC[C@H]2C(=O)O)NC(c2nccs2)=N[C@H]1c1ccc(F)cc1Br [Example 107] records CC50 at 5 days below 50 µM.
Completion: 1

###

Record form. Attribute: solubility thermodynamic. Fill in for each entry.
test: Lyophilisation solubility assay (Lysa); assay type: physicochemical; conditions: phosphate buffer, pH 6.5, aqueous buffer, thermodynamic from solid

Example compounds with recorded solubility thermodynamic:
{"columns": ["mol smiles", "solubility thermodynamic"],
 "data": [
  ["CCOC(=O)C1=C(CN2CCOC[C@H]2C(=O)O)NC(c2nccs2)=N[C@H]1c1ccc(F)cc1", "> 606 µg/mL"],
  ["CCOC(=O)C1=C(CN2CC(F)(F)C[C@H]2C(=O)O)NC(c2nccn2C)=N[C@H]1c1ccc(F)cc1Cl", "> 637 µg/mL"]
]}

Attention now turns to another entry.
Prompt: Please look up its solubility thermodynamic: "COC(=O)C1=C(CN2CCOC[C@H]2C(=O)O)NC(c2nccs2)=N[C@H]1c1ccc(Cl)c(F)c1"
Completion: > 631 µg/mL
